Target: recombinant soluble homotrimeric HA of A/Solomon Islands/3/06 (H1N1) (Influenza A virus A/Solomon Islands/3/2006(H1N1))
Assay: HA microarray, BCC supernatant
Details: remark: other sources report otherwise
REPORTED_METRIC: Trimeric HA Binding: RLU (RLU)

| BINDER | MEASURED_NUMBER |
| --- | --- |
| TCN-551 (5243_D01) (antibody, V domains shown) VH: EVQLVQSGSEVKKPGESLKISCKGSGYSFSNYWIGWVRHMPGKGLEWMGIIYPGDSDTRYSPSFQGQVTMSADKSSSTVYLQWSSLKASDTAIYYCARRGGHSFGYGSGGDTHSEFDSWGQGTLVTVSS VL: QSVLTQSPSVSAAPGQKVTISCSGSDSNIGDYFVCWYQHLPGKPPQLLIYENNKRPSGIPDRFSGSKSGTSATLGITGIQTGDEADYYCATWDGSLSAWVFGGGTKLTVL | 53800 |
| TCN-521 (3280_D18) (antibody, V domains shown) VH: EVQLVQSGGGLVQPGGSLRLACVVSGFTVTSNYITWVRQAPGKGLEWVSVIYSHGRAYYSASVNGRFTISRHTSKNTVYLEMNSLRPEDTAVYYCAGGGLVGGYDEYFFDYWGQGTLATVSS VL: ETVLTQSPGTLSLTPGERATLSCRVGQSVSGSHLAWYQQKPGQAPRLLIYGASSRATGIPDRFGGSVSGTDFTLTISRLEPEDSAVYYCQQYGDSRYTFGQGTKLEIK | 39600 |
| TCN-530 (5248_H10a) (antibody, V domains shown) VH: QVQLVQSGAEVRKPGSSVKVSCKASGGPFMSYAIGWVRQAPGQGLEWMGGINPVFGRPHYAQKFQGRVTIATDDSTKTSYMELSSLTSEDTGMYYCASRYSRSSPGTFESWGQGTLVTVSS VL: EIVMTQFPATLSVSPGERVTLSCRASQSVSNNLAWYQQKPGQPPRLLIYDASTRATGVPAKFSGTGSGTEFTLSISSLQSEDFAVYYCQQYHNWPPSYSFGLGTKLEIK | 32800 |
| TCN-540 (5060_F05) (antibody, V domains shown) VH: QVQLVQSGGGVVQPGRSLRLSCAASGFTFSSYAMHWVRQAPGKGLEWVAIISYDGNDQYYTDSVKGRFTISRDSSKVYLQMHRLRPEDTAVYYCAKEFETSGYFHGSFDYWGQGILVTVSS VL: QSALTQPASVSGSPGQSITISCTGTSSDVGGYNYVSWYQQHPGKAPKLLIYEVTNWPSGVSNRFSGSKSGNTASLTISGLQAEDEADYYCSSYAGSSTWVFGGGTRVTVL | 64 |
| TCN-552 (5249_I23) (antibody, V domains shown) VH: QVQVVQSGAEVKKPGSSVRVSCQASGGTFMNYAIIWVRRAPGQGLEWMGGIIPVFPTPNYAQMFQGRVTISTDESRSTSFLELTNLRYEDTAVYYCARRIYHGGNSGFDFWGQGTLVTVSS VL: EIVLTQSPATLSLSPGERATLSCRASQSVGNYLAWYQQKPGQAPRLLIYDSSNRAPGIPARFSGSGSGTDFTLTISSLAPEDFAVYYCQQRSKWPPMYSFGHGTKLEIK | 39300 |

Taken from patent US20150086555A1.
